Origin of the recorded values: patent EP3922644A2

- TEST SYSTEM: T1, Fibrinogen-D fragment (human, plasmin digest) (human, UniProt P02671 124-225; P02675 164-491; P02679 89-437)
- T1 construct: domain: D fragment; Made by digesting human Fg with plasmin for 4 h and gel filtration; also called Fg-D; Fg-D fragment
- T1 sequence 1: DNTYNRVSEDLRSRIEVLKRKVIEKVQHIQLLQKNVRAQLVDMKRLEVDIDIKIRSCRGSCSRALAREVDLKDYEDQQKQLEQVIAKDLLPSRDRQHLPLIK
- T1 sequence 2: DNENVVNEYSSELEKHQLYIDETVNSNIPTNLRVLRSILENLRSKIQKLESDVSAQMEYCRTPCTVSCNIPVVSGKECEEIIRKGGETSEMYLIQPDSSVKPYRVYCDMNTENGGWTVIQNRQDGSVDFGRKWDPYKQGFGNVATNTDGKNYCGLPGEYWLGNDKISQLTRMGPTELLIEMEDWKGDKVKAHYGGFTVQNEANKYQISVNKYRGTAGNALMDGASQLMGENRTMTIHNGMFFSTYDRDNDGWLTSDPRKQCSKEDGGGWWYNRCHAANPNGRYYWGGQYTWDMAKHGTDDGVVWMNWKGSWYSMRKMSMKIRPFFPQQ
- T1 sequence 3: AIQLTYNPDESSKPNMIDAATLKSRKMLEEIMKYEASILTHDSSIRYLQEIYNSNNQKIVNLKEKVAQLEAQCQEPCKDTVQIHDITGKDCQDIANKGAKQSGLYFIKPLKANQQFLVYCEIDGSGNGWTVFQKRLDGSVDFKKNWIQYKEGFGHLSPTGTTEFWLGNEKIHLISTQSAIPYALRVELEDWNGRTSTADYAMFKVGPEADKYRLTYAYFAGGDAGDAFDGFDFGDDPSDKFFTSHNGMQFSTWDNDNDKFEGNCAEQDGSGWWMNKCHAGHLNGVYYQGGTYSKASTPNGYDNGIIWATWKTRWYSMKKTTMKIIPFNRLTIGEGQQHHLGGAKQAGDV
- EXPERIMENT NOTES: ITC (VP-ITC), peptide titrated into 10 µM Fg-D, one-site model, 27°C
OBSERVABLE: Kd (nM)
Give bare numbers, in nM.

Briefly, Kd measured for ETNAYNVTTHANGQVSYGARPTYKKPS (also called peptide CoaRI) [sCoa-RI, synthetic peptide Coa 506-532] : 88
